This collection of values is drawn from paper PMC13429874.

System: ABHD2^L33–E425 (Homo sapiens, UniProt P08910) | Read-out: IC50
Put down the number, then write its unit next to it.

Some solved cases for reference:
molecule="O=C(N1CCCCC1)N1CCCC[C@@H]1c1ccccc1 [(R)-2]" measured_metric=IC50 experimental_value="220 nM"
molecule="O=C(N1CCCCC1)N1CCCC[C@@H]1Cc1ccccc1 [(R)-1]" measured_metric=IC50 experimental_value="1200 nM"
molecule="CC1CCCN(C(=O)c2ccccc2C(=O)c2ccccc2)C1 (stereo not drawn) [Compound 4]" measured_metric=IC50 experimental_value="360 nM"
molecule="O=C(N1CCCCC1)N1CCCC[C@H]1Cc1ccccc1 [(S)-1]" measured_metric=IC50 experimental_value="3000 nM"
molecule="O=C(N1CCCCC1)N1CCCC[C@H]1c1ccccc1 [(S)-2]" measured_metric=IC50 experimental_value="2100 nM"

The record that follows has no IC50 shown yet.
Give the reported value of IC50 for this record: Cc1ccc(C2CCCCN2C(=O)N2CCCCC2)cc1 (stereo not drawn) [Compound 5]
940 nM

###

Target: ABHD2^L33–E425 (Homo sapiens)
Construct: expression for ABHD2 amino acids L33–E425, in which a predicted transmembrane domain (amino acids 1–32) is removed; His6-FLAG (N); made in house; host or cells: E. coli BL21(DE3)-R3-pRARE2
Sequence (P08910 33-425): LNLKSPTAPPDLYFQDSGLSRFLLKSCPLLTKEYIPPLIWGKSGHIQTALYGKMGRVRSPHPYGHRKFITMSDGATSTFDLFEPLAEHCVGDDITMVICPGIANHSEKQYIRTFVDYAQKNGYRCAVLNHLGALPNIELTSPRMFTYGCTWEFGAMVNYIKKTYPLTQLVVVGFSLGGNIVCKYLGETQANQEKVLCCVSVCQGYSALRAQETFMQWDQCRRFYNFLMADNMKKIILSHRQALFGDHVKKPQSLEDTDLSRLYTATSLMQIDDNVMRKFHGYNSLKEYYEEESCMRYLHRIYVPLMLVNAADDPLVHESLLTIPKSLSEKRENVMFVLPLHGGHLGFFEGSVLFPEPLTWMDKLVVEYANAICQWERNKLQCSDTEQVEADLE
Assay: Differential scanning fluorimetry (DSF) with purified ABHD2^L33–E425
Type: binding
Conditions: purified protein
ΔTm shift for ABHD2^L33-425 determined by DSF values for the compounds below.
# number only, unit °C dropped from output

compound="Cc1ccc(C2CCCCN2C(=O)N2CCCCC2)cc1 (stereo not shown) [Compound 5]" subject_of_test="ABHD2^L33–E425 (Homo sapiens)" experimental_value=3.3
compound="O=C(N1CCCCC1)N1CCCCC1c1ccccc1 (stereo not shown) [Compound 2]" subject_of_test="ABHD2^L33–E425 (Homo sapiens)" experimental_value=13
compound="O=C(N1CCCCC1)N1CCCC[C@@H]1Cc1ccccc1 [(R)-1]" subject_of_test="ABHD2^L33–E425 (Homo sapiens)" experimental_value=3.0
compound="O=C(N1CCCCC1)N1CCCC[C@H]1c1ccccc1 [(S)-2]" subject_of_test="ABHD2^L33–E425 (Homo sapiens)" experimental_value=2.7
compound="O=C(N1CCCCC1)N1CCCC[C@@H]1c1ccccc1 [(R)-2]" subject_of_test="ABHD2^L33–E425 (Homo sapiens)" experimental_value=8.4
compound="CC1CCCN(C(=O)c2ccccc2C(=O)c2ccccc2)C1 (stereo not shown) [Compound 4]" subject_of_test="ABHD2^L33–E425 (Homo sapiens)" experimental_value=14

# ---- query compound ----
Hello, please tell me recorded ΔTm shift for ABHD2^L33-425 determined by DSF for this one: O=C(N1CCCCC1)N1CCCC[C@H]1Cc1ccccc1 [(S)-1]
2.5

###

Target: ABHD2^L33–E425 (Homo sapiens, UniProt P08910)
Construct: expression for ABHD2 amino acids L33–E425, in which a predicted transmembrane domain (amino acids 1–32) is removed; His6-FLAG (N); made in house; host or cells: E. coli BL21(DE3)-R3-pRARE2
Sequence (P08910 33-425): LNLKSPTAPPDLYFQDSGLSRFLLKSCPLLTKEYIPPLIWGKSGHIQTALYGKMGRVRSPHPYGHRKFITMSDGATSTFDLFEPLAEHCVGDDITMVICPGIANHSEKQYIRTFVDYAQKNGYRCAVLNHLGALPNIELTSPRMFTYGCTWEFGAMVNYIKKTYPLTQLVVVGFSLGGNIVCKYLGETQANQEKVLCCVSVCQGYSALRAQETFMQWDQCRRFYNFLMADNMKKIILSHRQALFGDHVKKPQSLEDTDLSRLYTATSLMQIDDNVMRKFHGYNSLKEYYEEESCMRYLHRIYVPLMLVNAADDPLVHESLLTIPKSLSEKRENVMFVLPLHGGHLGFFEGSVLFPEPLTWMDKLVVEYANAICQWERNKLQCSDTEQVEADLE
Assay: Differential scanning fluorimetry (DSF) with purified ABHD2^L33–E425
Assay type: binding
Conditions: 40 µM steroid, 30 min pre-incubation
MEASURED METRIC: effect on heat-induced denaturation of ABHD2^L33–E425 (DSF binding)

The following compounds have reported results that may help.
compound=CC(C)CCC[C@@H](C)[C@H]1CC[C@H]2[C@@H]3CC=C4C[C@@H](O)CC[C@]4(C)[C@H]3CC[C@]12C experimental_value="did not affect"
compound=C[C@]12CC[C@H]3[C@@H](CCC4=CC(=O)CC[C@@]43C)[C@@H]1CC[C@@H]2O experimental_value="did not affect"
compound="C[C@]12CCC(=O)C=C1CC[C@@H]1[C@@H]2[C@@H](O)C[C@@]2(C)[C@H]1CC[C@]2(O)C(=O)CO [hydrocortisone]" experimental_value="did not affect"
compound=CC(=O)[C@H]1CC[C@H]2[C@@H]3CCC4=CC(=O)CC[C@]4(C)[C@H]3CC[C@]12C experimental_value="did not affect"

Okay, next one:
State its effect on heat-induced denaturation of ABHD2^L33–E425 (DSF binding): C=C(C)[C@@H]1CC[C@]2(C)CC[C@]3(C)[C@H](CC[C@@H]4[C@@]5(C)CC[C@H](O)C(C)(C)[C@@H]5CC[C@]43C)[C@@H]12
did not affect

###

Molecular target: full-length human ABHD2 (ABHD2^FL) (Homo sapiens)
Construct: TEV site-eGFP-8xHis (C, cleaved yes); made in house; host or cells: SF9 insect cells (baculovirus)
Experiment: ABHD2^FL enzymatic activity assay with resorufin butyrate (RB) substrate
Format: biochemical
Conditions: 15 µM RB
MEASURED METRIC: pIC50
Scale explanation: pIC50 corresponds to minus log10 of a concentration expressed in moles per litre.

Query pIC50 for CCCCCCCCCCC[C@@H](C[C@@H]1OC(=O)[C@H]1CCCCCC)OC(=O)[C@H](CC(C)C)NC=O
6.52

###

Target: full-length human ABHD2 (ABHD2^FL) (Homo sapiens)
Construct: TEV site-eGFP-8xHis (C, cleaved yes); made in house; host or cells: SF9 insect cells (baculovirus)
Assay: ABHD2^FL enzymatic activity assay with 7-HCA substrate
Type: biochemical
Conditions: Supplementary Table S2; read-out: IC50 measured in ABHD2^FL in the 7-HCA Assay
pIC50: −log10 of the molar value.
Assign class by pIC50: not lower than 6 means 1.0; lower than 6 means 0.0.

compound="Cc1ccc(C2CCCCN2C(=O)N2CCCCC2)cc1 (centres unmarked) [Compound 5]" category_label=0.0
compound="O=C(N1CCCCC1)N1CCCCC1c1ccccc1 (centres unmarked) [Compound 2]" category_label=1.0
compound="O=C(N1CCCCC1)N1CCCC[C@H]1c1ccccc1 [(S)-2]" category_label=0.0

Here is the next item to consider.
# check: pIC50 of O=C(N1CCCCC1)N1CCCC[C@@H]1c1ccccc1 [(R)-2] is greater than or equal to 6
1.0
